METHOD: physchem
Type: physicochemical
PARTICULARS: diluted mcilvaine buffer, pH 4
MEASURED_PROPERTY: solubility at 1 h (µg/mL)

LINE_NOTATION | MEASURED_PROPERTY | RECORDED_RESULT
N#CCn1c(N2CC3(C2)CC(F)(F)C3)c(-c2ccc(F)c(Cl)c2)c(=O)n(-c2cncc(Cl)c2)c1=O | solubility at 1 h | 0.64

---

METHOD: physchem
Type: physicochemical
PARTICULARS: jp first dissolution test medium, pH 1.2
MEASURED_PROPERTY: solubility at 1 h (µg/mL)

LINE_NOTATION | UNIT_TEXT | RECORDED_RESULT
N#CCn1c(N2CC3(C2)CC(F)(F)C3)c(-c2ccc(F)c(Cl)c2)c(=O)n(-c2cncc(Cl)c2)c1=O | µg/mL | 1.08

---

METHOD: physchem
Type: physicochemical
PARTICULARS: jp second dissolution test medium, pH 6.8

MOLECULE | solubility at 1 h / µg/mL
N#CCn1c(N2CC3(C2)CC(F)(F)C3)c(-c2ccc(F)c(Cl)c2)c(=O)n(-c2cncc(Cl)c2)c1=O [Example 4F-1] | 0.61

---

METHOD: physchem
Type: physicochemical
PARTICULARS: purified water
MEASURED_PROPERTY: solubility at 1 h (µg/mL)

COMPOUND | MEASURED_PROPERTY | RECORDED_RESULT
N#CCn1c(N2CC3(C2)CC(F)(F)C3)c(-c2ccc(F)c(Cl)c2)c(=O)n(-c2cncc(Cl)c2)c1=O [Example 4F-1] | solubility at 1 h | 0.71
